Values compiled from PubChem BioAssay (NCI).

# Lookup of reported TGI keyed by entry
# System: OVCAR-8 ovarian
# Experiment summary: NCI tumour cell line growth inhibition, 48 h
Observable: TGI (µM)

>>> endpoint_result("COCC(C#N)NC1CC(OC2CC(O)(C(=O)CO)Cc3c(O)c4c(c(O)c32)C(=O)c2c(OC)cccc2C4=O)OC(C)C1O (stereo not given)")
0.549
>>> endpoint_result("COc1ccc(/C(=N/O)c2ccccc2C2=Nc3ccccc3C(NCc3ccccc3)O2)cc1C (stereo not given)")
77.1

----------
# Lookup of reported TGI keyed by entry
# System: T-47D breast
# Experiment summary: NCI tumour cell line growth inhibition, 48 h
Observable: TGI (µM)

>>> endpoint_result("C[Si](C)(C)OC1(C#N)c2ccccc2CCCC12CCCC2 (stereo not given)")
85.5
>>> endpoint_result("O=C1C=CC2C3C(=O)N(c4ccccc4)C(=O)C3C1N2Cc1ccccc1 (stereo not given)")
18.2
>>> endpoint_result("CC12CCC(C1)C(C)(C)C2OC(=O)c1ccccc1N (stereo not given)")
32.1

----------
# Lookup of reported TGI keyed by entry
# Tested on: HCT-116 colon
# Experiment summary: NCI tumour cell line growth inhibition, 48 h
Observable: TGI

>>> endpoint_result("O/N=C1\\C/C(=N\\O)c2c(Br)sc(Br)c21")
"> 100 µM"
>>> endpoint_result("CC1CN(c2cc3c(cc2F)c(=O)c(C(=O)O)cn3-c2ccc(N3CCN(C)CC3)cn2)CC(C)N1 (stereo not given)")
"> 100 µM"
>>> endpoint_result("Cc1cc(-c2ccccc2)nc(Nc2cc3ccccc3[nH]2)n1")
"> 100 µM"
>>> endpoint_result("COc1c(C(N)=O)cc(-c2ccc(Cl)cc2)cc1-c1ccc(S(N)(=O)=O)cc1")
"> 25 µM"
>>> endpoint_result("CCC(=O)NC1=C(Cl)C(=O)C(NC(=O)CC)=C(Cl)C1=O")
"17.3 µM"

----------
# System: U251 CNS
# Experiment summary: NCI tumour cell line growth inhibition, 48 h
# Lookup of reported TGI keyed by entry
Observable: TGI

>>> endpoint_result("CCOC(=O)Cc1[nH]c(C(=O)c2ccccc2)cc1C(=O)c1ccccc1")
"> 100 µM"
>>> endpoint_result("CCC(=O)NC1=C(Cl)C(=O)C(NC(=O)CC)=C(Cl)C1=O")
"> 56 µM"
>>> endpoint_result("COc1cc2c(cc1OCC(=O)Nc1ccc(Cl)cc1C(=O)c1ccccc1Cl)N=CC1CCCN1C2=O (stereo not drawn)")
"19.3 µM"
>>> endpoint_result("N#Cc1sc2c(c1OC(=O)c1ccco1)c(=O)n(-c1ccccc1)c(=S)n2-c1ccccc1")
"80.9 µM"
>>> endpoint_result("CC1=CC2(C)/C=C(C)/C=C\\CC(O)/C=C3/C=CC(=C4C(=O)OC2(CC1C)C4=O)OC3 (stereo not drawn)")
"3.58 µM"
>>> endpoint_result("O=C(O)c1cc(NCc2cc(O)ccc2O)ccc1O")
"> 100 µM"
>>> endpoint_result("Cc1cc(I)cc(CN(C)CCCN2CCC(C)CC2)c1O")
"29.8 µM"
>>> endpoint_result("O=C(CC(=O)N1N=C(c2ccccc2)C(N=Nc2ccc(S(=O)(=O)CCOS(=O)(=O)O)cc2)C1=O)Nc1ccc(Cl)cc1 (stereo not drawn)")
"> 100 µM"

----------
# Lookup of reported TGI keyed by entry
# System: HOP-92 NSCLC
# Experiment summary: NCI tumour cell line growth inhibition, 48 h
Observable: TGI (µM)

>>> endpoint_result("COc1c(C(N)=O)cc(-c2ccc(Cl)cc2)cc1-c1ccc(S(N)(=O)=O)cc1")
10.4
>>> endpoint_result("CCOP(=O)(OCC)C(Nc1ccc(Cl)cc1)c1ccc(F)cc1 (stereo not given)")
59.1
>>> endpoint_result("OC(CCN1CCN(CCOC(c2ccccc2)c2ccccc2)CC1)c1ccccc1 (stereo not given)")
75.8
>>> endpoint_result("O=c1oc2ccccc2c(O)c1C(c1ccc(OCc2ccccc2)cc1)c1c(O)c2ccccc2oc1=O")
91.6

----------
# Lookup of reported log10 TGI keyed by entry
# System: M14 melanoma
# Experiment summary: NCI tumour cell line growth inhibition, 48 h
Observable: log10 TGI (log10 of the value in µM)

>>> endpoint_result("Clc1nc2nc(N3CCNCC3)nc(N3CCCC3)c2[nH]1")
1.54
>>> endpoint_result("N#Cc1sc2c(c1OC(=O)c1ccco1)c(=O)n(-c1ccccc1)c(=S)n2-c1ccccc1")
1.87
>>> endpoint_result("CC1=CC2(C)/C=C(C)/C=C\\CC(O)/C=C3/C=CC(=C4C(=O)OC2(CC1C)C4=O)OC3 (configuration not stated)")
0.96
>>> endpoint_result("CCC[CH2][Sn]1([CH2]CCC)[O]C(=O)c2cccc([N+](=O)[O-])c2C(=O)[O]1")
0.32
>>> endpoint_result("COC(=O)Nc1nc2ccc(C(=O)c3cccc(I)c3)cc2[nH]1")
1.32
>>> endpoint_result("CC1Cc2c(Cl)ncnc2N(C)c2ccccc21 (configuration not stated)")
1.24
>>> endpoint_result("Clc1ccc2c(NC3CCC(N4CCCCC4)CC3)ccnc2c1 (configuration not stated)")
1.26
>>> endpoint_result("O=C1C(c2ccccc2)=C(c2ccccc2)C1(Cl)Cl")
0.77
>>> endpoint_result("CCCCCCCCCCCCCCNCC(OC)OC")
1.44
>>> endpoint_result("COC(=O)C1=C(C)NC(C)=C(C(=O)OC)C1c1cccc(/[N+]([O-])=C/c2ccccc2)c1")
1.54
>>> endpoint_result("COC(=O)[C@]1(C)CCC[C@@]2(C)C3=C(CC[C@H]12)C[C@@H](CC(OC(C)=O)OC(C)=O)[C@@H](C)C3")
1.30
>>> endpoint_result("NC(=Nc1ccccc1)N/N=C/c1c[nH]c2ccccc12")
0.18
>>> endpoint_result("NC1(c2cc3ccccc3s2)CCCCCC1")
1.57

----------
# Lookup of reported TGI keyed by entry
# Test system: OVCAR-5 ovarian
# Experiment summary: NCI tumour cell line growth inhibition, 48 h
Observable: TGI

>>> endpoint_result("COP(=O)(CP(=O)(OC)OCCC(C)CCC=C(C)C)OC (configuration not stated)")
"> 100 µM"
>>> endpoint_result("COc1cc2nc(-c3cccs3)nc(Nc3ccccc3C(=O)NN)c2cc1OC")
"> 100 µM"
>>> endpoint_result("OC1OCC(COc2cc(Cl)c(Cl)cc2Cl)OC1O (configuration not stated)")
"> 100 µM"
>>> endpoint_result("Nc1nc2cc(Cl)ccc2n1N")
"> 100 µM"
>>> endpoint_result("COc1ccc(N=NC2=C(O)CCC2=O)cc1")
"> 100 µM"
>>> endpoint_result("CSc1ccc(N2C(=O)C3c4[nH]c5ccccc5c4C4CCC(C(C)(C)C)CC4C3C2=O)cc1 (configuration not stated)")
"> 100 µM"
>>> endpoint_result("CC1C(c2ccccc2)N(C)C(c2ccccc2)C(C)C1(O)c1ccccc1 (configuration not stated)")
"> 100 µM"
>>> endpoint_result("CC(NNC(=S)N1CCN(c2ccccn2)CC1)c1nccc2ccccc12 (configuration not stated)")
"14.2 µM"
>>> endpoint_result("O=C(O)C(Cc1ccccc1)Cc1ccccc1")
"> 100 µM"
>>> endpoint_result("COC(=O)CC[C@@H](C)[C@H]1CC[C@H]2[C@@H]3CC[C@@H]4C[C@H](O)CC[C@]4(C)[C@H]3CC[C@]12C")
"35.6 µM"
>>> endpoint_result("CCCCCCC(=O)NC1=C(N2CC2)C(=O)C(NC(=O)CCCCCC)=C(N2CC2)C1=O")
"> 100 µM"
>>> endpoint_result("CCC[CH2][Sn]1([CH2]CCC)[O]C(=O)c2cccc([N+](=O)[O-])c2C(=O)[O]1")
"2.49 µM"

----------
# Tested on: MOLT-4 leukemia
# Experiment summary: NCI tumour cell line growth inhibition, 48 h; in the data active = GI50 below about 0.43 µM; inactive = the rest
Outcome codes: active, inactive

>>> class_label("N#C/C(=C\\c1ccc[nH]1)c1cc(-c2ccc(Cl)cc2)nn1-c1ccccc1")
"inactive"
>>> class_label("CCC(=O)NC1=C(Cl)C(=O)C(NC(=O)CC)=C(Cl)C1=O")
"inactive"
>>> class_label("c1ccc2c(N=NSc3ncnc4nc[nH]c34)c3ccccc3nc2c1")
"inactive"
>>> class_label("Cc1nnc(N/N=C/c2ccc([N+](=O)[O-])o2)[nH]c1=O")
"inactive"
>>> class_label("COc1cc2ncnc(Oc3ccc(NC(=O)Nc4ccc(CN5CCOCC5)c(C(F)(F)F)c4)c4ccccc34)c2cc1OC")
"active"
>>> class_label("CCN1CCN(C(=O)[C@]23CC[C@@H](C)[C@H](C)[C@@H]2C2=CC[C@@H]4[C@@]5(C)CCC(=O)C(C)(C)[C@@H]5CC[C@@]4(C)[C@]2(C)CC3)CC1")
"inactive"
>>> class_label("COc1cc(OC)c(/C=C/C(=O)c2c(OC)cc(OC)cc2OC)c(OC)c1")
"inactive"
